# System: RD cells
# condition_description: human
parameter: CC50

query: Please report the measured CC50 for `CNc1nc(N)nc2c1ncn2[C@@H]1O[C@H](CO[P@@](=O)(N[C@@H](C)C(=O)OC(C)C)Oc2ccccc2)[C@@H](O)[C@@]1(C)F`
result: > 86 µM

====

# Tested on: Huh7 cells
# method_notes: Visual cytotoxicity in uninfected Huh7 cells
# Assay type: cell-based, human
# condition_description: Alpha-229E row
parameter: CC50

query: Please report the measured CC50 for CNc1nc(N)nc2c1ncn2[C@@H]1O[C@H](CO[P@@](=O)(N[C@@H](C)C(=O)OC(C)C)Oc2ccccc2)[C@@H](O)[C@@]1(C)F [Compound 1A]
result: > 50 µM
